# targetEntity: T1, recombinant protein containing hST2 extracellular domain with mouse antibody heavy chain Fc tag (hST2-ECD-mFc) (human)
# T1 construct: Used for SPR and for ELISA of chimeric and humanized antibodies; also called human ST2 antigen
# T1 chain: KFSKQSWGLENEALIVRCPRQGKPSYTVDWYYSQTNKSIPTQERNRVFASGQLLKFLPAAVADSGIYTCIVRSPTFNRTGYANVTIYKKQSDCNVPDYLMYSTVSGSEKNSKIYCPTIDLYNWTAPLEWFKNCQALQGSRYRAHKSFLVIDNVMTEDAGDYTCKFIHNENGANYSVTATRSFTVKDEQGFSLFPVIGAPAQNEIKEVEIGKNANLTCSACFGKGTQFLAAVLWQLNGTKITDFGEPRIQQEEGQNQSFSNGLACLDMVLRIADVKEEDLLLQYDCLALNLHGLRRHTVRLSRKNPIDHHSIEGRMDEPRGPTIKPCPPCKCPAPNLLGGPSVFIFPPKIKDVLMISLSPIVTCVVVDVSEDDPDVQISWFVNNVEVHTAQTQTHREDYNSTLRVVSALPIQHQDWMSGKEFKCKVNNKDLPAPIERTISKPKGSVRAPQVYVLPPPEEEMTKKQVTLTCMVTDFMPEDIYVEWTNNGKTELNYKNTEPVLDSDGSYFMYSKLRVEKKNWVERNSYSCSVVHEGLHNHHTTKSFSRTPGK
# assayComment: ELISA, plate coated with hST2-ECD-mFc, antibody not heated
measurementKind: EC50 (pM)
Answers are plain numbers, in pM.

Quickly give me recorded EC50 for Chimeric 31C8 (antibody, human IgG2, kappa, V domains shown, also called xi31C8) VH: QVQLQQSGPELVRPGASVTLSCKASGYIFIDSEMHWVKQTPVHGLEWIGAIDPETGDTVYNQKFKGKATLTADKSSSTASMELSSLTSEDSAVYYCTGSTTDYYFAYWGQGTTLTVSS VL: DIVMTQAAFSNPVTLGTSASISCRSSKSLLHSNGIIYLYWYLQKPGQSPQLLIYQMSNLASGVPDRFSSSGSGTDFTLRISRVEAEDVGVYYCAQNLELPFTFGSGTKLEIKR 74.4
